Ref: ChEMBL document CHEMBL1158429

Ki listing for selected compounds.
- Assayed target: Cytochrome P450 3A4 (Homo sapiens, UniProt P08684)
- Sequence (P08684 whole entry): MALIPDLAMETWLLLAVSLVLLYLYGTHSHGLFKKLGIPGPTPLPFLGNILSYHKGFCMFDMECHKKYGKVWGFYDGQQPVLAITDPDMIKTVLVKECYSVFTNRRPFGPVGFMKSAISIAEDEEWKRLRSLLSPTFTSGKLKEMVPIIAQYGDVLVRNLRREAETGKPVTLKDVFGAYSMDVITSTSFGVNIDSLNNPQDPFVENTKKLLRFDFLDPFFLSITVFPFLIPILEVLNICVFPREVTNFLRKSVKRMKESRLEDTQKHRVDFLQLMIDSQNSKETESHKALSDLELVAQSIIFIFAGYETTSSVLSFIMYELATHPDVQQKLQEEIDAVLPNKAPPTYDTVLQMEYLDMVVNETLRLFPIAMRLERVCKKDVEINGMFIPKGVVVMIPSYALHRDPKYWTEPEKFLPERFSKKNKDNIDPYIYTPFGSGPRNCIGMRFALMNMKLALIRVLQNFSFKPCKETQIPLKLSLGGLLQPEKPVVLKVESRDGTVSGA
- Assay notes: Inhibition of human CYP3A4 assessed as biotransformation of 7-benzyloxyquinoline
- Assay type: ADME
- Condition summary: read-out: Ki
API: value field is a number in nM; no unit string.

A selection of reference data follows.
CC(C)(C)[Si](C)(C)O[C@H]1C=C2CCN3Cc4cc5c(cc4[C@H]([C@@H]1O)[C@@H]23)OCO5 ... 260
CC(=O)O[C@H]1[C@H]2c3cc4c(cc3CN3CCC(=C[C@@H]1O)[C@H]23)OCO4 ... 7600
CC(=O)O[C@H]1[C@H]2c3cc4c(cc3CN3CCC(=C[C@@H]1OC(C)=O)[C@H]23)OCO4 ... 11000
O=C1N[C@@H]2C(=C[C@H](O)[C@@H](O)[C@H]2O)c2cc3c(c(O)c21)OCO3 ... 630

Kindly consider the entry below.
# input Fill in reported Ki for this entry: `CC(=O)O[C@H]1[C@H]2c3cc4c(cc3CN3CCC(=C[C@@H]1O[Si](C)(C)C(C)(C)C)[C@H]23)OCO4`
# output 210
